experiment: Pharmacokinetic parameters after intravenous administration in rats; assay type: in vivo; conditions: rat, iv, 0.3-1.0 mg/kg, solution in plasma with up to 2% DMSO, read-out: CLplasma (converted)
Endpoint: clearance

> print(dat)
                                     smiles  experimental.result
1  Cc1cc(-c2nc(-c3ccc(OC(F)(F)F)cc3)no2)nn1Cc1cccc(N2CC(O)C2)c1       26.7 mL/min/kg
2  Cc1cc(-c2nc(-c3ccc(SC(F)(F)F)cc3)no2)nn1Cc1cccc(N2CCC(O)CC2)c1         12 mL/min/kg

----------
Test: Pharmacokinetic parameters after intravenous administration in rats
Format: in vivo
Details: rat, iv, 0.3-1.0 mg/kg, solution in plasma with up to 2% DMSO, read-out: VSS
Protocol: The substance to be examined was administered to animals (for example mice or rats) intravenously as a solution (for example in corresponding plasma with a small addition of DMSO or in a PEG/ethanol/water mixture), and peroral administration was effected as a solution (for example in Solutol/ethanol/water or PEG/ethanol/water mixtures) or as a suspension (e.g. in tylose), in each case via a gavage. […] The substance was quantified analytically in the plasma via LC-MS/MS. […]
Endpoint: Vd (L/kg)

> print(dat)
                                   molecule  experimental.result
1  Cc1cc(-c2nc(-c3ccc(SC(F)(F)F)cc3)no2)nn1Cc1cccc(N2CCC(O)CC2)c1                  7.8
2  Cc1cc(-c2nc(-c3ccc(OC(F)(F)F)cc3)no2)nn1Cc1cccc(N2CC(O)C2)c1                   12
3  Cc1ccc(Cn2nc(-c3nc(-c4ccc(OC(F)(F)F)cc4)no3)cc2C)cc1 [Example 1 in WO 2008/141731-A2, reference compound]                  6.9

----------
assay: Pharmacokinetic parameters after peroral administration in rats; format: in vivo; settings: rat, plasma, po; rats, 1-3 mg/kg, solution in Solutol/ethanol/water
In this section we review reported half-life values for a set of molecules.
Endpoint: half-life (h)

> print(dat)
                                   molecule   endpoint  experimental.result
1  Cc1ccc(Cn2nc(-c3nc(-c4ccc(OC(F)(F)F)cc4)no3)cc2C)cc1 [Example 1 in WO 2008/141731-A2, reference compound]  half-life                   29
2  Cc1cc(-c2nc(-c3ccc(OC(F)(F)F)cc3)no2)nn1Cc1cccc(N2CC(O)C2)c1  half-life                   12

----------
test: Pharmacokinetic parameters after intravenous administration in rats; assay type: in vivo; conditions: rat, iv, 0.3-1.0 mg/kg, solution in plasma with up to 2% DMSO
In this section we review reported half-life values for a set of compounds.
Endpoint: half-life

> print(dat)
                                   compound  experimental.result
1  Cc1cc(-c2nc(-c3ccc(OC(F)(F)F)cc3)no2)nn1Cc1cccc(N2CC(O)C2)c1                6.8 h
2  Cc1ccc(Cn2nc(-c3nc(-c4ccc(OC(F)(F)F)cc4)no3)cc2C)cc1 [Example 1 in WO 2008/141731-A2, reference compound]                 30 h
3  Cc1cc(-c2nc(-c3ccc(SC(F)(F)F)cc3)no2)nn1Cc1cccc(N2CCC(O)CC2)c1                8.2 h
